Quick reference for pIC50 among some compounds
System: HEp-2
Assay: Inhibition of colony formation of H.Ep-2 cells
Assay type: functional, cell-based
Details: Homo sapiens, read-out: I50
pIC50: −log10 of the molar value.
property_name: pIC50

compound="Cc1cn(C2CC(O)C(C(=O)Nc3ccc(NC(=O)N(C)N=O)cc3)O2)c(=O)[nH]c1=O (stereo unspecified)" result_qualifier== observed=4.34
compound="Cc1cn(C2CC(O)C(CNC(=O)N(CCCl)N=O)O2)c(=O)[nH]c1=O (stereo unspecified)" result_qualifier== observed=5.00
compound="O=NN(CCCl)C(=O)NCC1OC(n2ccc(=O)[nH]c2=O)CC1O (stereo unspecified)" result_qualifier== observed=4.85
compound="CCN(N=O)C(=O)NCC1OC(n2cc(C)c(=O)[nH]c2=O)CC1O (stereo unspecified)" result_qualifier=< observed=4.06
compound="Cc1cn(C2CC(O)C(C(=O)NCCN(N=O)C(=O)Nc3ccccc3)O2)c(=O)[nH]c1=O (stereo unspecified)" result_qualifier== observed=4.05
compound="CN(N=O)C(=O)Nc1ccc(NC(=O)C2OC(n3ccc(=O)[nH]c3=O)C(O)C2O)cc1 (stereo unspecified)" result_qualifier== observed=4.48

---

Test: Half life was measured at pH 7
Assay type: ADME
Quick reference for T1/2 among some compounds
property_name: T1/2 (min)

compound=CN(N=O)C(N)=O property_name=T1/2 unit_descriptor=min observed=52.5
compound=O=NN(C(=O)NC1CCCCC1)C1CCCCC1 property_name=T1/2 unit_descriptor=min observed=52.5
compound="O=NN(CCCl)C(=O)N[C@H]1C(O)O[C@H](CO)[C@@H](O)[C@@H]1O (stereo partly drawn)" property_name=T1/2 unit_descriptor=min observed=52.5

---

Quick reference for half-life among some compounds
Assay: Half life was measured at pH 7
Assay type: ADME
property_name: half-life (h)

compound="Cc1cn(C2CC(O)C(C(=O)Nc3ccc(NC(=O)N(C)N=O)cc3)O2)c(=O)[nH]c1=O (stereo unspecified)" observed=0.4
compound="CCN(N=O)C(=O)NCC1OC(n2cc(C)c(=O)[nH]c2=O)CC1O (stereo unspecified)" observed=19
compound="O=NN(CCCl)C(=O)NCC1OC(n2ccc(=O)[nH]c2=O)CC1O (stereo unspecified)" observed=4
compound="Cc1cn(C2CC(O)C(C(=O)NCCN(N=O)C(=O)Nc3ccccc3)O2)c(=O)[nH]c1=O (stereo unspecified)" observed=0.7
compound="Cc1cn(C2CC(O)C(CNC(=O)N(CCCl)N=O)O2)c(=O)[nH]c1=O (stereo unspecified)" observed=6
compound="CN(N=O)C(=O)Nc1ccc(NC(=O)C2OC(n3ccc(=O)[nH]c3=O)C(O)C2O)cc1 (stereo unspecified)" observed=2
